Sourced from patent US20180127503A1

target: T1, human ROR2 expressed on the cell surface (human, UniProt Q01974 34-943); test: flow cytometry, SKNSH cells (neuroblastoma); set-up: unit not given here
T1 construct: Endogenous ROR2 of human tumour cell lines; also called cell surface ROR2; ROR2 on tumour cell lines
T1 sequence (Q01974 34-943 limits assumed): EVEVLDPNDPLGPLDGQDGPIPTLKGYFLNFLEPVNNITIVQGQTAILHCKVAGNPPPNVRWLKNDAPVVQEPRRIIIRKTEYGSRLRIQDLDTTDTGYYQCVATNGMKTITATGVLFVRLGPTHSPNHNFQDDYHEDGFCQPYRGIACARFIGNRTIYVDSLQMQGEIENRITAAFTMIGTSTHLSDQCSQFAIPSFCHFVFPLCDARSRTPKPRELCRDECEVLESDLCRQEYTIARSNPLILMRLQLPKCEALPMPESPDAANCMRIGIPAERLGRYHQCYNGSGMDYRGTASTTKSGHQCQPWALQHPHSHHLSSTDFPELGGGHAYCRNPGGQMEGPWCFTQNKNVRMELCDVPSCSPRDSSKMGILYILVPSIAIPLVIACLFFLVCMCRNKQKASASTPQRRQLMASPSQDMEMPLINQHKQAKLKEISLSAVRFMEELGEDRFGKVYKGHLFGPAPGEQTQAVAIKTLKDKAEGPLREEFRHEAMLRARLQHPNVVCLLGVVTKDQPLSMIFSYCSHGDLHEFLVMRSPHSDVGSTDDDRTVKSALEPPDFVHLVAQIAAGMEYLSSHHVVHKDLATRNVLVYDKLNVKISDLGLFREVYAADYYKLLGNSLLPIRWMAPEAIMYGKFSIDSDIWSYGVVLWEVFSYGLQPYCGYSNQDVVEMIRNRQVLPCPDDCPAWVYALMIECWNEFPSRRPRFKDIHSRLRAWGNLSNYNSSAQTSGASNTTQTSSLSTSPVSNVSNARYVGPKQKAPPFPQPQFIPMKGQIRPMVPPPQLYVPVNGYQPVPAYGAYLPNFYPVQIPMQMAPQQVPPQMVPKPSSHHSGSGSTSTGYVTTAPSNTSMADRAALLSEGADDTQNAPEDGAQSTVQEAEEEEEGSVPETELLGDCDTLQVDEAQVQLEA
Parameter measured: binding intensity
Give the figure by itself; no unit, no explanation.

INPUT: Which binding intensity is listed for ROR2-23 full length human IgG1 antibody (antibody, V domains shown, The light chain of clone 023 is labelled kappa; also called clone #23; clone #023 IgG1) VH: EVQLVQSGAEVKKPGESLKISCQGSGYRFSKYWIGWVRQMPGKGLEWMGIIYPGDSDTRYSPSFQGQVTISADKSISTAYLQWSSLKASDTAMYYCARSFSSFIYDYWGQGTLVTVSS VL: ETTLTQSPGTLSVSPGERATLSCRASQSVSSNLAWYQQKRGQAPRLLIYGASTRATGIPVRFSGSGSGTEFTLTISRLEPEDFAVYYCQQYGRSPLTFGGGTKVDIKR ?
OUTPUT: 170

INPUT: Given the binder ROR2-241 full length human IgG1 antibody (antibody, V domains shown) VH: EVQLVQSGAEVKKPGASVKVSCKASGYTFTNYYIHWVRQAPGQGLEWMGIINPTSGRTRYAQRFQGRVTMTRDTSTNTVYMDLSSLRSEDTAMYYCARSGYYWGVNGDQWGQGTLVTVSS VL: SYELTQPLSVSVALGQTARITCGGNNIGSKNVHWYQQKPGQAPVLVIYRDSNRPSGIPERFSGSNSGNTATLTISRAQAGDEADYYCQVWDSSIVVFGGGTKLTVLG , what is its reported binding intensity?
OUTPUT: 141

INPUT: Record request: binding intensity value, item ROR2-27 full length human IgG1 antibody (antibody, V domains shown, also called clone #27; clone #027 IgG1) VH: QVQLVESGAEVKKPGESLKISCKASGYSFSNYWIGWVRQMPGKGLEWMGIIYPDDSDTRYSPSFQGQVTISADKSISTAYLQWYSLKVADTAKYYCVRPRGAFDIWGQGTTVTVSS VL: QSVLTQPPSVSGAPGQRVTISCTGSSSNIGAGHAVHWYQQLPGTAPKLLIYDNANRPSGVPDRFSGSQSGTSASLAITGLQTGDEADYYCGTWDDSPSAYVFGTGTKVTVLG
OUTPUT: 8

INPUT: GET /values?readout=binding intensity&item= ROR2-90 full length human IgG1 antibody (antibody, V domains shown, also called clone #90; antibody #90) VH: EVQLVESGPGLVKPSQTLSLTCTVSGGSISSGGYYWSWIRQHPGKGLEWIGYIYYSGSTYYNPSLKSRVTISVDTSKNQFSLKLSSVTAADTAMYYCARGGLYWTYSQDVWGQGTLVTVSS VL: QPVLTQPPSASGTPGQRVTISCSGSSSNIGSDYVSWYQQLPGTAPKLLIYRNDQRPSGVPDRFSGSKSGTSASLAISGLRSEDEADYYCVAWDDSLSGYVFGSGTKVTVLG
OUTPUT: 105
